- assayed target: Tubulin
- method: Binding affinity to wild type tubulin (unknown origin) by MST analysis
assay endpoint: Kd (nM)
Enter your answer as a number in nM; do not include the unit.

QUERY: Endpoint output: Kd of COc1cc(C(=O)/C(C)=C/c2c[nH]c3cc(F)ccc23)cc(OC)c1OC . Value?
RESULT: 136
